target: T1, NEMO (NF-κB essential modulator), tag-free, biotinylated (human, UniProt Q9Y6K9 1-419, biotin (in vitro biotinylation kit, biotin:NEMO molar ratio 9:1)); assay: peptide or protein array; Invitrogen Protoarray v4.0, about 8,400 human proteins spotted on nitrocellulose-coated glass slides; 10 µg biotinylated tag-free NEMO in 120 µl probing buffer (PBS, 0.5 mM DTT, 5 mM MgCl2, 5% glycerol, 0.05% Triton X-100), 4°C, 1.5 h; bound NEMO detected with labelled streptavidin; hits Z-score > 3, hits of the biotin-GST control array subtracted; details: both partners purified
T1 construct: NEMO, NF-κB essential modulator, human, 48 kDa; also called biotinylated NEMO; biotin-NEMO; source: E. coli BL21(DE3), purified (glutathione sepharose), GST removed with thrombin, biotinylated in vitro
observed property: binding result

Nucleosome assembly protein 1-like 5 (natural protein, human, UniProt Q96NT1 1-182, looked up, Nucleosome assembly protein 1-like 5, human; also called NAP1L5; source: insect cell/baculovirus, purified, spotted (Invitrogen Protoarray v4.0)) MADSENQGPAEPSQAAAAAEAAAEEVMAEGGAQGGDCDSAAGDPDSAAGQMAEEPQTPAENAPKPKNDFIESLPNSVKCRVLALKKLQKRCDKIEAKFDKEFQALEKKYNDIYKPLLAKIQELTGEMEGCAWTLEGEEEEEEEYEDDEEEGEDEEEEEAAAEAAAGAKHDDAHAEMPDDAKK :: binds
Hemoglobin, zeta (natural protein, human, UniProt P02008 1-142, looked up, Hemoglobin, zeta, human; also called HBZ; source: insect cell/baculovirus, purified, spotted (Invitrogen Protoarray v4.0)) MSLTKTERTIIVSMWAKISTQADTIGTETLERLFLSHPQTKTYFPHFDLHPGSAQLRAHGSKVVAAVGDAVKSIDDIGGALSKLSELHAYILRVDPVNFKLLSHCLLVTLAARFPADFTAEAHAAWDKFLSVVSSVLTEKYR :: binds
Family with sequence similarity 128, member A (natural protein, human, UniProt Q6P582 1-158, looked up, also called FAM128A; source: insect cell/baculovirus, purified, spotted (Invitrogen Protoarray v4.0)) MAAQGVGPGPGSAAPPGLEAARQKLALRRKKVLSTEEMELYELAQAAGGGIDPDVFKILVDLLKLNVAPLAVFQMLKSMCAGQRLASEPQDPAAVSLPTSSVPETRGRDKGSAALGGVLALAERSNHEGSSQRMPRQPSATRLPKGGGPGKSPTQGST :: binds
